Cited source for all entries: PubChem BioAssay

Exercise: state measured z-score for each of the molecules provided.
Protocol Description: FRG1 promoter luciferase signal modulators, primary screen, FRG1 inhibition for FSHD, cell-based, C2C12 myotubes, firefly/Renilla luciferase, luminescence (AID 1084)
Test Settings: higher = more signal, called active from +8 up or from −8 down
Activity calls are given as the source filed them.

Worked examples, 8 molecules total:
{"columns": ["Molecule", "Reported Value"],
 "data": [
  ["C=C/C=C/[C@H]1C(=C)CN([C@@H](Cc2ccccc2)C(=O)OC)[C@@H]1[C@H](O)Cc1ccccc1", "-0.164 (inactive)"],
  ["CC(C)(C)OC(=O)CC[C@]12N=C(c3ccc(OCCCO)cc3)O[C@H]1c1ccccc1N(CCS(=O)(=O)c1ccccc1)C2=O", "0.281 (inactive)"],
  ["CC(C)C[C@@H]1NC(=O)[C@H]2C[C@@H](C(=O)NCCCCCCN(C)C)[C@@H](c3ccc(O)cc3)N2C1=O", "3.69 (inactive)"],
  ["O=C1OCCC/C=C\\[C@H]2OC34C=CCN(Cn5nnc6ccccc65)C(=O)[C@H]3N(CCCCCCO)C(=O)[C@@H]4C12 (stereo partly specified)", "-0.584 (inactive)"],
  ["CCOC(=O)C[C@H]1[C@H](OC(=O)c2ccc(C(=O)c3ccccc3)cc2)[C@@H](NC(=O)c2ccc(-c3ccccc3)cc2)c2cc(OCCCO)ccc2N1C(=O)c1ccccc1", "0.805 (inactive)"],
  ["C#CCN(CC=C(C)C)[C@H](CO)c1ccccc1", "-0.154 (inactive)"],
  ["CCN(CC)c1ccc(N2CC=CC34O[C@@H]5/C=C\\CCCOC(=O)C5[C@H]3C(=O)N(CCO)[C@@H]4C2=O)cc1 (stereo partly specified)", "0.599 (inactive)"],
  ["CCCC=C(CCC)[C@@H](NS(=O)(=O)c1cccs1)c1ccc(C(=O)OC)cc1", "-3.86 (inactive)"]
]}

Provide z-score values for the following items, in order.
1. COc1cc2c(cc1OC)CN(C(=O)[C@H]1[C@@H]3C(=O)O[C@@H](c4ccccc4)[C@@H](c4ccccc4)N3[C@@H](c3ccc(O)cc3)[C@]13C(=O)Nc1ccc(C#CCNC(N)=O)cc13)CC2
2. COc1cc2c(cc1OC)CN(C(=O)[C@H]1[C@@H]3C(=O)O[C@@H](c4ccccc4)[C@@H](c4ccccc4)N3[C@@H](c3ccc(O)cc3)[C@]13C(=O)Nc1ccc(C#CC4=CCCCC4)cc13)CC2
3. O=C1OCCC/C=C\[C@H]2OC34C=CCN(c5ccc6ccccc6c5)C(=O)[C@H]3N(CCCCCCO)C(=O)[C@@H]4C12 (stereo partly specified)

1: 0.297 (inactive); 2: -0.139 (inactive); 3: -0.824 (inactive)
